From various publications: IC50 for Coagulation factor XI (Homo sapiens).
So basically, if IC50 comes in under 300 nM it's y, and if it's 300 nM or more it's n.

// known answers, use as guide
Cc1cc(C(CC2CC2)C(=O)Nc2ccc(C(=O)O)cc2)[n+]([O-])cc1-c1c(OC(F)F)ccc(Cl)c1F (centres unmarked)
n
CC[C@@H](NC(=O)N1C(=O)[C@H](Cc2ccnc(N)c2)[C@H]1C(=O)N(C)c1nccn1C)C1CCCCC1
y

Enquiry: Lab log: compare recorded IC50 with 300 nM; is it strictly lower for CC[C@@H](NC(=O)N1C(=O)[C@H](Cc2ccnc(N)c2)[C@H]1C(=O)N(C)c1ccn(C)n1)c1cccc(Cl)c1 ?
Return: y

Enquiry: Lab log: compare recorded IC50 with 300 nM; is it strictly lower for Nc1c(C(=O)N2CCC[C@@]3(C2)OC(=O)Nc2ccc(Cl)c(F)c23)cnn1Cc1cnccn1 ?
Return: n

Enquiry: Lab log: compare recorded IC50 with 300 nM; is it strictly lower for Nc1c(C(=O)N2CCC[C@@]3(C2)OC(=O)Nc2ccc(Cl)c(F)c23)cnn1C1(C(F)(F)F)CC(F)(F)C1 ?
Return: n

Enquiry: Lab log: compare recorded IC50 with 300 nM; is it strictly lower for CCCC(C(=O)Nc1ccc(C(N)=O)nc1)n1cc(OC)c(-c2cc(Cl)ccc2OCC(F)(F)F)cc1=O (racemic) ?
Return: y

Enquiry: Lab log: compare recorded IC50 with 300 nM; is it strictly lower for CC[C@@H](NC(=O)N1C(=O)[C@H](Cc2cc(C)nc(N)c2)[C@H]1C(=O)N(C)c1ccnn1C)c1cc(C)ccc1F ?
Return: y

Enquiry: Lab log: compare recorded IC50 with 300 nM; is it strictly lower for CC(c1ccc(N2C[C@H]3C[C@H]3C2=O)nc1)n1cc(NC(=O)c2cncc(-c3c(C#N)ccc(Cl)c3F)n2)cn1 (single isomer, unassigned) ?
Return: n

Enquiry: Lab log: compare recorded IC50 with 300 nM; is it strictly lower for C[C@@H](F)CN(C)CC1CCCN1c1ncc(Cn2cc(NC(=O)c3cncc(-c4c(C(F)F)ccc(Cl)c4F)n3)cn2)cn1 (some centres unmarked) ?
Return: n

Enquiry: Lab log: compare recorded IC50 with 300 nM; is it strictly lower for Cn1c(-c2ccccc2)nnc1-n1ncc(C(=O)N2CCC[C@@]3(C2)OC(=O)Nc2ccc(Cl)c(F)c23)c1N ?
Return: n
